Biological target: F508del-CFTR (Homo sapiens, UniProt P13569, DEL508-508)
Construct: expressed in transfected cells
Sequence (P13569 with tags, fused parts or gaps DEL508-508): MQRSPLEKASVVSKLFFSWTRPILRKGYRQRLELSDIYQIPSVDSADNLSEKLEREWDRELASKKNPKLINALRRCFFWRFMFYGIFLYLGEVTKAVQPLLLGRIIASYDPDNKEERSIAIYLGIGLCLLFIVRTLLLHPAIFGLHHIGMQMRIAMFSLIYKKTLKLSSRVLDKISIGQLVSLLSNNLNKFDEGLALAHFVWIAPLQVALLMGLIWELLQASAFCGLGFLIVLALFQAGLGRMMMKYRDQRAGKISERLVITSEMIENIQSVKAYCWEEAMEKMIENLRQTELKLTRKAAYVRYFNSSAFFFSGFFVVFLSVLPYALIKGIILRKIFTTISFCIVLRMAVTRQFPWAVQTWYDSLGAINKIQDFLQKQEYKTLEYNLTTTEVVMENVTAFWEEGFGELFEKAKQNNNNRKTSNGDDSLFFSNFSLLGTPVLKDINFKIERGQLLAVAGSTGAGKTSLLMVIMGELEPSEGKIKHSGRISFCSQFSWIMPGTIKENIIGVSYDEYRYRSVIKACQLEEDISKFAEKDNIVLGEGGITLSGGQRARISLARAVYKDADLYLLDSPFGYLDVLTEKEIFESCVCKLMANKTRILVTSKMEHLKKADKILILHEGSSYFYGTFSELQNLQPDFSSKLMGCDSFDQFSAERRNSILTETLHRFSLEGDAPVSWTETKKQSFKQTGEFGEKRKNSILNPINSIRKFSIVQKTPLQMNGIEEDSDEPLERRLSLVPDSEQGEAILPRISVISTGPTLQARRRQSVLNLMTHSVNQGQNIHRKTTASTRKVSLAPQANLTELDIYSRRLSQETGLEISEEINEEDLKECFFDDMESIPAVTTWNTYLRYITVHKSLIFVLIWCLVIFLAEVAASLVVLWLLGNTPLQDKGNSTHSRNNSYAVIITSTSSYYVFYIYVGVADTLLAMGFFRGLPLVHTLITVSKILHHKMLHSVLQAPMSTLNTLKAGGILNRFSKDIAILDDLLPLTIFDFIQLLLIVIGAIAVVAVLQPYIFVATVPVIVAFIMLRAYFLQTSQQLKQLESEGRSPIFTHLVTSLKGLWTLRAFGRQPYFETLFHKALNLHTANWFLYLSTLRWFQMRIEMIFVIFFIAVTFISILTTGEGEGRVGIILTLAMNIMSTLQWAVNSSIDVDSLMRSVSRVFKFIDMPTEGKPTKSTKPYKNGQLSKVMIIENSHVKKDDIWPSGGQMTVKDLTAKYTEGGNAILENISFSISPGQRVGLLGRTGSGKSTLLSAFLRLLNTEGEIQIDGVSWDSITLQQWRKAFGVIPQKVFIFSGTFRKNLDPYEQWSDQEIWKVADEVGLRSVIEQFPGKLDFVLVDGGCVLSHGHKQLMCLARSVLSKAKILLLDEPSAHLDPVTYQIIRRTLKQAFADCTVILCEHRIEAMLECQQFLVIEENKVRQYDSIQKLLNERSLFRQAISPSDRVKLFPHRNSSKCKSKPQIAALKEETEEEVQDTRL
Experiment: HS-YFP functional assay in CFBE41o- cells stably overexpressing F508del-CFTR
Format: cell-based
Conditions: 24 h treatment, 3 nM-10 µM range
pEC50: −log10 of the molar value.
Readout Kind: pEC50

Chemical String	pEC50
C#Cc1ccc(O[C@H]2CCCc3c(C(F)(F)F)nn(-c4cccc(C(=O)N(C)c5ccc(C6(C(F)(F)F)N=N6)cc5)c4)c32)cc1	6.41

[a] CN(C(=O)c1cccc(-n2nc(C(F)(F)F)c3c2[C@@H](Oc2ccc(C(=O)O)cc2)CCC3)c1)c1ccc(C2(C(F)(F)F)N=N2)cc1
[b] C[C@H]1NC(=O)N[C@H]1CCCCCC(=O)NCCOCCOCCOCCn1cc(CCC2(CCNC(=O)c3ccc(O[C@H]4CCCc5c(C(F)(F)F)nn(-c6cccc(C(=O)N(C)c7ccc8c(c7)OC(F)(F)O8)c6)c54)cc3)N=N2)nn1
## Input # query: argmin of pEC50 over a and b Your choice should be expressed through its label.
## Output b
